target: Influenza virus A/Brisbane/59/2007 (H1N1) (Influenza A virus A/Brisbane/59/2007 (H1N1)); experiment: cell-based or functional assay
parameter: Neutralizing activity (%) at 100 µg/ml

>>> testresult("Group 63 representative clone F083-336, Fab-PP-type antibody (Fab, V domains shown) VH: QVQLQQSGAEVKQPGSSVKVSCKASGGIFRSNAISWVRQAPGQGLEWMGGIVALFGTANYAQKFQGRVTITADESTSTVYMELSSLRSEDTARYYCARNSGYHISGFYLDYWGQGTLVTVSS VL: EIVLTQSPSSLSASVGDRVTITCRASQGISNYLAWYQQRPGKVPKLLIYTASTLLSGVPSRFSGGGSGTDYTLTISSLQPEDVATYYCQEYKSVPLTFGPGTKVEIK")
100
>>> testresult("Group 44 representative clone F081-008, Fab-PP-type antibody (Fab, V domains shown) VH: QVQLVQSGAEVKKPGSSVKVSCKASGGTFSSFSTYTISWVRQAPGQGLEWMGRSIPLLGITNYAQKFQGRVTITADISTSTAYMELSSLRSEDTAVYYCARYQSSDYYNSEYFQHWGQGTLVTVSS VL: EIVLTQSPGTLSLSLGERVTLSCRASQNVGTNYLAWYQQKPGQAPRLLIYGASSRATGVPDRFSGSGSGTDFTLTISRLAPEDFAVYYCQQYSSSPLTFGGGTKLEIK")
100
>>> testresult("Group 42 representative clone F083-249, Fab-PP-type antibody (Fab, V domains shown) VH: QVQLVQSGSEVKKPGSSVKVSCKASGVTFSSYAISWVRQAPGQGLEWMGGISPMFGTTRYAQKFQGRVTITADESTRTGFMELSSLRSGDTAVYYCARSPTYYPGALDMWGQGTTVTVSS VL: DVVMTQSPSLLSASVGDRVTITCRASQAIANFVSWFQQKPGEAPKSLIHAASTLQGGVPPRFSGSGYGAVFTLTITNLQPEDFATYFCQQYNSLPFTFGPGTDVEVR")
100
>>> testresult("Group 58 representative clone F083-307, Fab-PP-type antibody (Fab, V domains shown) VH: QVQLQQSGADVKKPGSSVKVSCKASGGTFGNYAISWVRQAPGQGLEWMGGITPIFGPANYAQRFQGRVTISADISTRTAYMELSSLRSEDTAIYYCARHPTYYFGSAMEYWGQGTLVTVSS VL: SYELTQPPSVSVAPGQTATITCGGDRIGTGPVHWYQQRPGRAPVLIIYGSTHRPSGIPERFSGSKSVNTATLSISGVGVGDEADYYCQVWDTSTAQPIVFGGGTKLTVLS")
100
>>> testresult("Group 62 representative clone F083-349, Fab-PP-type antibody (Fab, V domains shown) VH: QVQLVQSGAEVRKPGSSVKVSCKASGVIFIKFAISWVRQAPGQGLEWMGGIIPMFGTTNYAQKFQGRVTITADGSTNTVYMELSSLTSEDTAVYYCAKEEGYYYGSGPLDSWGQGTLVTVSS VL: DIVMTQSPDFLSVSLGERVTINCKSSQTVLNRSNNKNYLAWYQKKPGQPPRLLLYWSSTRESGVPDRFSGSGSETDFALTITNLQAEDLAVYFCQQFYDMPVTFGGGTKLEIK")
92.1
